# credit: the supplement of paper PMC11451515

- System: NOMO1
- Run Description: cell viability relative to DMSO control; higher = less cytotoxic
- Measurement Parameters: RPMI 5 mM glucose + 10% dialyzed FBS; 48 h; 0.569 µM

- Structure Notation: "O=P(O)(O)C(O)(Cn1ccnc1)P(=O)(O)O"
  System: "NOMO1"
  Units Label: "%"
  cell viability: 118
- Structure Notation: "Nc1ncnc2c1ncn2[C@@H]1O[C@H](CO)C[C@H]1O"
  System: "NOMO1"
  Units Label: "%"
  cell viability: 87.8
- Structure Notation: "CN1\\C=N/C2=CC=C(NC3=CC(=CC=C3C)NC(=O)C4=CC(=CC=C4)C(C)(C)C#N)C=C2C1=O"
  System: "NOMO1"
  Units Label: "%"
  cell viability: 76.6
- Structure Notation: "Cc1ccnc2c1NC(=O)c1cccnc1N2C1CC1"
  System: "NOMO1"
  Units Label: "%"
  cell viability: 110
- Structure Notation: "CNCC[C@H](Oc1cccc2ccccc12)c1cccs1"
  System: "NOMO1"
  Units Label: "%"
  cell viability: 112
- Structure Notation: "NC(=O)c1ccc(N(C(N)=O)c2c(F)cccc2F)nc1-c1ccc(F)cc1F"
  System: "NOMO1"
  Units Label: "%"
  cell viability: 95
- Structure Notation: "O=C(O)c1cc(/N=N/c2ccc([S+](=O)([O-])Nc3ccccn3)cc2)ccc1O"
  System: "NOMO1"
  Units Label: "%"
  cell viability: 115
- Structure Notation: "CC1=CC(=CC(=C1C\\C2=N\\CCN2)C)C(C)(C)C"
  System: "NOMO1"
  Units Label: "%"
  cell viability: 116
- Structure Notation: "Nc1ccc([S+](=O)([O-])Nc2ccnn2-c2ccccc2)cc1"
  System: "NOMO1"
  Units Label: "%"
  cell viability: 94.7
- Structure Notation: "NC[C@H]1O[C@H](O[C@@H]2[C@H](O)[C@@H](O[C@H]3O[C@H](CO)[C@@H](O)[C@H](N)[C@H]3O)[C@H](N)C[C@@H]2N)[C@H](O)[C@@H](O)[C@@H]1O"
  System: "NOMO1"
  Units Label: "%"
  cell viability: 113

----------
- Test system: SEM cells
- Run Description: cell viability relative to DMSO control; higher = less cytotoxic
- Measurement Parameters: RPMI 5 mM glucose + 10% FBS; 48 h; 0.19 µM

- Molecule: "N[C@@H]1CONC1=O"
  cell viability [%]: 93.3
- Molecule: "c1nc2c(NC3CCCCC3)nc(Nc3ccc(N4CCOCC4)cc3)nc2[nH]1"
  cell viability [%]: 131
- Molecule: "CN1CC(=O)N2[C@H](c3ccc4c(c3)OCO4)c3[nH]c4ccccc4c3C[C@@H]2C1=O"
  cell viability [%]: 108
- Molecule: "CCOC(=O)C(C)OC1=CC=CC2=C1\\C=C/N(CC(=O)NC3=CC=C4OCCOC4=C3)C2=O (centres undefined)"
  cell viability [%]: 90.2
- Molecule: "C=CC(=O)Nc1cc2c(Nc3ccc(F)c(Cl)c3)ncnc2cc1OCCCN1CCOCC1"
  cell viability [%]: 78.6
- Molecule: "Cc1coc2c1C(=O)C(=O)c1c-2ccc2c1CCCC2(C)C"
  cell viability [%]: 99.6
- Molecule: "Nc1ncnc2c1c(-c1cccc(OCc3ccccc3)c1)cn2[C@H]1C[C@@H](CN2CCC2)C1"
  cell viability [%]: 107
- Molecule: "CC[C@@H]([C@H](C)O)n1ncn(-c2ccc(N3CCN(c4ccc(OCC5CO[C@@](Cn6cncn6)(c6ccc(F)cc6F)C5)cc4)CC3)cc2)c1=O (some centres undefined)"
  cell viability [%]: 115
- Molecule: "C[C@@H]1CCO[C@H]2CN\\3/C=C(/C(=O)NCC4=C(F)C=C(F)C=C4)C(=O)\\C(=C3C(=O)N12)O"
  cell viability [%]: 111

----------
- System: P12-Ichikawa
- Run Description: cell viability relative to DMSO control; higher = less cytotoxic
- Measurement Parameters: HPLM + 10% dialyzed FBS; 48 h; 1.71 µM

- Compound: "CC(N[C@H]1CCCC[C@@H]1NC(=O)c1ccc(Cl)cc1)c1cccc2ccccc12 (some centres undefined)"
  cell viability / %: 116
- Compound: "O=C(O)c1cccnc1Nc1cccc(C(F)(F)F)c1"
  cell viability / %: 131
- Compound: "CC(C)OC(=O)[C@H](C)N[P@](=O)(OC[C@H]1O[C@@H](N2\\C=C/C(=O)NC2=O)[C@](C)(F)[C@@H]1O)OC3=CC=CC=C3"
  cell viability / %: 41.5
- Compound: "COc1ccc2c(c1)[C@]13CCCCC1C(C2)N(C)CC3 (some centres undefined)"
  cell viability / %: 126
- Compound: "Cc1cc2c(C(N)=O)cccc2n1-c1nc2c(c(NCc3ccccc3)n1)COCC2"
  cell viability / %: 85.9
- Compound: "Oc1nc(-c2ccc(C(F)(F)F)cc2)nc2c1CSCC2"
  cell viability / %: 98.1
- Compound: "CN1\\C=N/C2=CC=C(NC3=CC(=CC=C3C)NC(=O)C4=CC(=CC=C4)C(C)(C)C#N)C=C2C1=O"
  cell viability / %: 87.4
- Compound: "O=C(c1ccccc1)c1ccc2n1CCC2C(=O)O (centres undefined)"
  cell viability / %: 91.7
- Compound: "O=C(O)C(=O)c1cn(Cc2ccccc2)c2ccc(-c3ccc(OC(F)(F)F)cc3)cc12"
  cell viability / %: 103

----------
- Tested on: P12-Ichikawa
- Run Description: cell viability relative to DMSO control; higher = less cytotoxic
- Measurement Parameters: RPMI 5 mM glucose + 10% dialyzed FBS; 48 h; 0.000781 µM
cell viability overview
Assay Readout: cell viability (%)

- Compound: "CC12CC3CC(C)(C1)CC(N)(C3)C2"
  Assay Readout: "cell viability"
  Measurement: 110
- Compound: "COc1c(C)c2c(c(O)c1C/C=C(\\C)CCC(=O)O)C(=O)OC2"
  Assay Readout: "cell viability"
  Measurement: 103
- Compound: "Cc1cc2c(C(N)=O)cccc2n1-c1nc2c(c(NCc3ccccc3)n1)COCC2"
  Assay Readout: "cell viability"
  Measurement: 95.9
- Compound: "Cc1cccc(Nc2ccncc2[S+](=O)([O-])NC(=O)NC(C)C)c1"
  Assay Readout: "cell viability"
  Measurement: 86.1
- Compound: "Nc1ncnc2c1ncn2[C@@H]1O[C@H](CO)C[C@H]1O"
  Assay Readout: "cell viability"
  Measurement: 83.8
- Compound: "CCCCCCCCCCCCCC(=O)N[C@H](CO)[C@H](O)c1ccc([N+](=O)[O-])cc1"
  Assay Readout: "cell viability"
  Measurement: 89.4
- Compound: "CN1CC(=O)N2[C@H](c3ccc4c(c3)OCO4)c3[nH]c4ccccc4c3C[C@@H]2C1=O"
  Assay Readout: "cell viability"
  Measurement: 89.8
- Compound: "C[C@@H](CN1CC(=O)NC(=O)C1)N1CC(=O)NC(=O)C1"
  Assay Readout: "cell viability"
  Measurement: 94.6
- Compound: "CCCNC(=O)Nc1ccc(Oc2ncnc3cc(OC)c(OC)cc23)cc1Cl"
  Assay Readout: "cell viability"
  Measurement: 98.7
- Compound: "CCCCN(CCCC)CC(O)c1cc(Cl)cc2c1-c1ccc(Cl)cc1/C2=C/c1ccc(Cl)cc1 (configuration not stated)"
  Assay Readout: "cell viability"
  Measurement: 83.9
- Compound: "OCC(O)C(O)C(O)CO (configuration not stated)"
  Assay Readout: "cell viability"
  Measurement: 87.2
- Compound: "CN(C)CC(C)(C)CNc1nn2c(-c3ccccc3)nnc2cc1C1CCC1"
  Assay Readout: "cell viability"
  Measurement: 105

----------
- System: NOMO1
- Run Description: AUC of viability dose-response curve (% viability x log10 dose units); higher = less sensitive
- Measurement Parameters: HPLM + 10% dialyzed FBS; 48 h
Assay Readout: AUC of viability dose-response curve

- Compound: "Cc1cnc(Nc2ccc(F)cc2Cl)nc1-c1c[nH]c(C(=O)N[C@H](CO)c2cccc(Cl)c2)c1"
  System: "NOMO1"
  Measurement: 353
- Compound: "CCOC(=O)\\C1=C\\[C@]2(CC)CCCN3CCC4=C([C@H]23)[N]1C5=C4C=CC=C5"
  System: "NOMO1"
  Measurement: 464
- Compound: "CC[C@@H]([C@H](C)O)n1ncn(-c2ccc(N3CCN(c4ccc(OCC5CO[C@@](Cn6cncn6)(c6ccc(F)cc6F)C5)cc4)CC3)cc2)c1=O (stereo partly drawn)"
  System: "NOMO1"
  Measurement: 457
- Compound: "Cc1ccccc1C(=O)Nc1ccc(C(=O)N2CCCC(O)c3cc(Cl)ccc32)c(C)c1 (stereo not drawn)"
  System: "NOMO1"
  Measurement: 452
- Compound: "COc1c(C)c2c(c(O)c1C/C=C(\\C)CCC(=O)O)C(=O)OC2"
  System: "NOMO1"
  Measurement: 421
- Compound: "COc1ccc2c(c1)[C@]13CCCCC1C(C2)N(C)CC3 (stereo partly drawn)"
  System: "NOMO1"
  Measurement: 468
- Compound: "Cc1ccnc2c1NC(=O)c1cccnc1N2C1CC1"
  System: "NOMO1"
  Measurement: 405
- Compound: "Cc1ccc([S+](=O)([O-])OCC(=O)Nc2ccc(C(=O)O)c(O)c2)cc1"
  System: "NOMO1"
  Measurement: 469
- Compound: "CNc1nc(Nc2cnn([C@H]3CCN(C4COC4)C[C@@H]3F)c2Cl)ncc1C(F)(F)F"
  System: "NOMO1"
  Measurement: 316
- Compound: "COC1=CC=C2[C@H]3CC[C@]4(C)[C@H](CC[C@H]4[C@@H]3CCC2=C1)NCCCCCCN5C(=O)\\C=C/C5=O"
  System: "NOMO1"
  Measurement: 434
- Compound: "COC(=O)C\\1=C(C)\\N\\C(=C(/C1C2=CC=CC3=NON=C23)C(=O)OC(C)C)C (stereo not drawn)"
  System: "NOMO1"
  Measurement: 437
- Compound: "CCCCN(CCCC)CC(O)c1cc(Cl)cc2c1-c1ccc(Cl)cc1/C2=C/c1ccc(Cl)cc1 (stereo not drawn)"
  System: "NOMO1"
  Measurement: 456
- Compound: "CCCNC(=O)Nc1ccc(Oc2ncnc3cc(OC)c(OC)cc23)cc1Cl"
  System: "NOMO1"
  Measurement: 419
- Compound: "Nc1ncnc2c1c(-c1cccc(OCc3ccccc3)c1)cn2[C@H]1C[C@@H](CN2CCC2)C1"
  System: "NOMO1"
  Measurement: 433
- Compound: "CNCC[C@H](Oc1cccc2ccccc12)c1cccs1"
  System: "NOMO1"
  Measurement: 411
- Compound: "Nc1c2c(nc3ccccc13)CCCC2"
  System: "NOMO1"
  Measurement: 352
- Compound: "CN1CCCN(CC1)C2=CC=C3C(=O)\\C(=C/4SC5=C(C=CC=C5)N4C3=N2)C(=O)NCC6=CN=C(C)C=N6"
  System: "NOMO1"
  Measurement: 442
- Compound: "C=CC(=O)Nc1cc(NC(=O)c2ccc(C)c(NC(=O)c3ccno3)c2)cc(C(F)(F)F)c1"
  System: "NOMO1"
  Measurement: 431
